Origin of the recorded values: paper PMC6271978

Molecular target: PTP1B (GST-PTP1B) (Homo sapiens, UniProt P18031)
Sequence (P18031 1-435): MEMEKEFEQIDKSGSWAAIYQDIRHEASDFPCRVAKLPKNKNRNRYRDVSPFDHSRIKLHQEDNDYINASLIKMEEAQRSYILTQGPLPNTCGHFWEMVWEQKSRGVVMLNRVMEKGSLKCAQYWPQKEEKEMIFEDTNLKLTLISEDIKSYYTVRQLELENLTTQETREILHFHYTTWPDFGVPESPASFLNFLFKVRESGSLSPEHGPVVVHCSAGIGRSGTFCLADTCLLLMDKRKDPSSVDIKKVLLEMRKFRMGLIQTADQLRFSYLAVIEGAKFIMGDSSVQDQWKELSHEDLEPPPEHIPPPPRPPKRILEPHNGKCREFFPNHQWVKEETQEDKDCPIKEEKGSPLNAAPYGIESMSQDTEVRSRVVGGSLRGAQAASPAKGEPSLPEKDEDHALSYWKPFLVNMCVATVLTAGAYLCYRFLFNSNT
Test: PTP1B inhibition, colorimetric pNPP assay
Format: biochemical
Conditions: PTP1B, pNPP substrate, compound at 20 μg/mL
Returns Criterion met if the recorded inhibition at 20 µg/mL is greater than or equal to 40%, and Criterion not met otherwise.

// below: answered compounds
O=C(O)c1ccc(C2Nc3cccc4cccc(c34)N2)cc1 | Criterion met
N#Cc1cc(C2Nc3cccc4cccc(c34)N2)ccc1F | Criterion not met
O=C(O)C(=O)Nc1ccc(C2Nc3cccc4cccc(c34)N2)cc1 | Criterion not met
O=C(O)CCC(=O)Nc1ccc(C2Nc3cccc4cccc(c34)N2)cc1 | Criterion not met
COC(=O)C1CCCN1C(=O)c1ccc(C2Nc3cccc4cccc(c34)N2)cc1 (centres unmarked) | Criterion not met

query: Could you please find out whether Brc1ccc(C2Nc3cccc4cccc(c34)N2)cc1 has inhibition at 20 µg/mL that meets 40% or exceeds it?
result: Criterion not met

query: Could you tell me if the measured inhibition at 20 µg/mL of COC(=O)CNC(=O)c1ccc(C2Nc3cccc4cccc(c34)N2)nc1 reaches 40% or more?
result: Criterion met

query: Please check the record O=C(O)CNC(=O)c1ccc(C2Nc3cccc4cccc(c34)N2)cc1 and state if its inhibition at 20 µg/mL is at or above 40%.
result: Criterion met

* * *

molecular target: PTP1B (GST-PTP1B) (Homo sapiens, UniProt P18031); assay: PTP1B inhibition, colorimetric pNPP assay; type: biochemical; conditions: PTP1B, pNPP substrate, compound at 20 μg/mL
Kindly return Satisfied if reported inhibition at 20 µg/mL is no lower than 90%; return Not satisfied if it is lower.

O=C(O)CCCOc1ccc(C2Nc3cccc4cccc(c34)N2)cc1 | Not satisfied
O=C(O)CCCCNC(=O)c1ccc(C2Nc3cccc4cccc(c34)N2)cc1 | Satisfied
CC(C)(C)OC(=O)NCCC(=O)Nc1ccc(C2Nc3cccc4cccc(c34)N2)cc1 | Not satisfied
O=C(O)CCCNC(=O)c1ccc(C2Nc3cccc4cccc(c34)N2)nc1 | Satisfied

query: Check the entry O=C(O)CC(=O)Nc1ccc(C2Nc3cccc4cccc(c34)N2)cc1 : does inhibition at 20 µg/mL equal or exceed 90%?
result: Satisfied

query: Evaluate O=C(O)c1ccc(C2Nc3cccc4cccc(c34)N2)nc1 : inhibition at 20 µg/mL at minimum 90%?
result: Satisfied

query: Hello, I need to know if COC(=O)c1ccc(C2Nc3cccc4cccc(c34)N2)cc1 has measured inhibition at 20 µg/mL not below 90%. Thanks!
result: Not satisfied
